Molecular target: T1, PSMA Fab
T1 construct: also called Anti-PSMA Fab; 006 PSMA Fab
Experiment: phage binding ELISA; biotinylated PSMA Fab on neutravidin plate, clonal phage supernatant, anti-M13 HRP detection; blocking buffer alone;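 further: before phage were added, wells were preincubated with blocking buffer either containing PSMA antigen or without it, and phage were then added with no wash in between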
Where no end group is shown, it is not given here.
measurement.label: Phage binding ELISA signal, Anti-PSMA Fab
# output: bare number, no unit

Record excerpt, results attached:
>  <binder>
HDPACVPSWMCFGF (cysteine pairing not given here; also: fused to phage pIII, linker and order not given here, Peptide-180 library clone, tested as clonal phage supernatant; not shown: pIII filament protein of the bacteriophage, to which the peptide is fused) [Phage-3207]

>  <recorded.value>
1.98

$$$$
>  <binder>
VVPLCIPQWMCAVF (cysteine pairing not given here; also: fused to phage pIII, linker and order not given here, Peptide-180 library clone, tested as clonal phage supernatant; not shown: pIII filament protein of the bacteriophage, to which the peptide is fused) [Phage-3201]

>  <recorded.value>
1.98

$$$$
>  <binder>
PFAYCVPQWMCEAF (cysteine pairing not given here; also: fused to phage pIII, linker and order not given here, Peptide-180 library clone, tested as clonal phage supernatant; not shown: pIII filament protein of the bacteriophage, to which the peptide is fused) [Phage-3208]

>  <recorded.value>
1.98

$$$$
>  <binder>
VVKICQPDWMCWGF (cysteine pairing not given here; also: fused to phage pIII, linker and order not given here, Peptide-180 library clone, tested as clonal phage supernatant; not shown: pIII filament protein of the bacteriophage, to which the peptide is fused) [Phage-3205]

>  <recorded.value>
1.98

$$$$

Please look at the following binder next.
Prompt: Return Phage binding ELISA signal, Anti-PSMA Fab (reported value) for this binder: VSVRCEPEWMCMGF (cysteine pairing not given here; also: fused to phage pIII, linker and order not given here, Peptide-180 library clone, tested as clonal phage supernatant; not shown: pIII filament protein of the bacteriophage, to which the peptide is fused) [Phage-3203]
Completion: 1.98

Origin of measurements: patent US20260242478A1
